- measurement_target: hCB1 (Homo sapiens)
- run_description: bioSensAll ebBRET signaling profiling, hCB1
- Type: cell-based
- Set-up: host or cells: HEK293SL cells, transient PEI transfection
- experimental_setup: read-out: EC50 [95% CI]; hCB1 Gi1
// reported EC50 per item
measurement_kind: EC50 (µM)

- compound: "COC(=O)C(NC(=O)c1cc(C)n(-c2cccc(F)c2)n1)c1cccs1 (centres unmarked)"
  reported: 0.849
- compound: "Cc1c(C(=O)OCC2CSc3ccccc3O2)cnn1Cc1ccccc1 (centres unmarked)"
  reported: 6.79
- compound: "Cc1nn(Cc2ccc(Cl)cc2)c(C)c1C(=O)OCC1CSc2ccccc2O1 (centres unmarked)"
  reported: 4.94
- compound: "COC(=O)[C@@H]1[C@@H]2CCC[C@@H]2CN1C(=O)c1cc(C)n(-c2cccc(C(F)(F)F)c2)n1"
  reported: 0.0655
- compound: "CC(=O)C(c1cccs1)N(C)C(=O)c1cc(C)n(-c2cccc(C(F)(F)F)c2)n1 (centres unmarked)"
  reported: 4.06

---

Property: concentration at 120 min; scope: individual molecules
- run_description: Pharmacokinetics: plasma, brain, CSF
- experimental_setup: male, CD-1, mouse, brain, intraperitoneal, 0.2 mg/kg

- smiles_repr: "COC(=O)[C@@](C)(NC(=O)c1cc(C)n(-c2cccc(C(F)(F)F)c2)n1)c1cccs1"
  concentration at 120 min / ng/g: 33.1
- smiles_repr: "Cc1cc(C(=O)NC(C)(c2ccco2)c2ccco2)nn1-c1cccc(C(F)(F)F)c1"
  concentration at 120 min / ng/g: 17.9

---

- measurement_target: hCB1 (Homo sapiens, UniProt P21554)
- Sequence (P21554 whole entry): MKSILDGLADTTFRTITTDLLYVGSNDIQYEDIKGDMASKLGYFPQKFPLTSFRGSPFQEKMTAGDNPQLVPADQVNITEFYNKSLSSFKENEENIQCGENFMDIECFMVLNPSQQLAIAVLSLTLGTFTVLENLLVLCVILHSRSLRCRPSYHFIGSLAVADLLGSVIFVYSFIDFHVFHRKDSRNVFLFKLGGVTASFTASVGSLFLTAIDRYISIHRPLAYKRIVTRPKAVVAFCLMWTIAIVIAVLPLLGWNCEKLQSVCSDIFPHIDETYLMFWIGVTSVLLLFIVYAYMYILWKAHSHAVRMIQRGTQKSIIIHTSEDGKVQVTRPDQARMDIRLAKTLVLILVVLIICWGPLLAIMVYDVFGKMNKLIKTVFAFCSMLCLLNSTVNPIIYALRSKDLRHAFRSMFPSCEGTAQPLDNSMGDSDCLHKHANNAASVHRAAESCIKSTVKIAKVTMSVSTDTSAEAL
- run_description: bioSensAll ebBRET signaling profiling, hCB1
- Type: cell-based
- Design: host or cells: HEK293SL cells, transient PEI transfection
- experimental_setup: Log [Compound] (M) -11.0177; single replicate values, FigS6a
measurement_kind: GoB hCB1

- compound: "Cn1nc(-c2nnc(C(C)(C)Oc3ccc(C(F)(F)F)cc3)o2)c2ccccc2c1=O"
  reported: -5.284
- compound: "COC(=O)C(NC(=O)c1cc(C)n(-c2cccc(C(F)(F)F)c2)n1)c1cccs1 (centres unmarked)"
  reported: -1.018
- compound: "COC(=O)C(NC(=O)c1cc(C)n(-c2cccc(F)c2)n1)c1cccs1 (centres unmarked)"
  reported: -1.521
- compound: "COC(=O)[C@@H]1[C@@H]2CC[C@@H]2CN1C(=O)c1cc(C)n(-c2cccc(C(F)(F)F)c2)n1"
  reported: -2.384
- compound: "Cc1nn(Cc2ccc(Cl)cc2)c(C)c1C(=O)OCC1CSc2ccccc2O1 (centres unmarked)"
  reported: -4.381

---

- measurement_target: hCB1 (Homo sapiens, UniProt P21554)
- run_description: bioSensAll ebBRET signaling profiling, hCB1
- Type: cell-based
- Design: host or cells: HEK293SL cells, transient PEI transfection
- experimental_setup: Gi1 biosensor; Log [Compound] (M) -9.61989

- compound: "CC(=O)C(c1cccs1)N(C)C(=O)c1cc(C)n(-c2cccc(C(F)(F)F)c2)n1 (stereo not shown)"
  measurement_target: "hCB1 (Homo sapiens, UniProt P21554)"
  Gi1 hCB1 response: -3.749
- compound: "COC(=O)[C@@H]1[C@@H]2CCC[C@@H]2CN1C(=O)c1cc(C)n(-c2cccc(Cl)c2)n1 (racemic)"
  measurement_target: "hCB1 (Homo sapiens, UniProt P21554)"
  Gi1 hCB1 response: -10.5755
- compound: "COc1cccc(C(NC(=O)c2cc(C)n(-c3cccc(C(F)(F)F)c3)n2)c2ccco2)c1 (stereo not shown)"
  measurement_target: "hCB1 (Homo sapiens, UniProt P21554)"
  Gi1 hCB1 response: 86.3361
- compound: "Cc1cc(C(=O)NC(c2ccccc2)c2ccco2)nn1-c1cccc(C#N)c1 (stereo not shown)"
  measurement_target: "hCB1 (Homo sapiens, UniProt P21554)"
  Gi1 hCB1 response: -10.195

---

- measurement_target: hCB1 (Homo sapiens)
- run_description: Lance Ultra cAMP accumulation assay, CHO cells;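 further: human CB1R stably expressed in CHO cells, ligands co-incubated with forskolin at room temperature, read-out is lowering of forskolin-stimulated cAMP accumulation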
- Format: cell-based
- Parameters: expressed in transfected cells
- experimental_setup: hCB1-expressing cells; in words
measurement_kind: agonism, inhibition of forskolin-stimulated cAMP

- compound: "Cc1cc(C(=O)NC(C)(c2ccco2)c2ccco2)nn1-c1cccc(C(F)(F)F)c1 [‘4936]"
  reported: "agonists"
- compound: "Cn1nc(-c2nnc(C(C)(C)Oc3ccc(Cl)cc3)o2)c2ccccc2c1=O [‘0450]"
  reported: "modest agonism"
- compound: "COC(=O)[C@@](C)(NC(=O)c1cc(C)n(-c2cccc(C(F)(F)F)c2)n1)c1cccs1 [‘1350]"
  reported: "agonists"
- compound: "COC(=O)C(NC(=O)c1cc(C)n(-c2cccc(F)c2)n1)c1cccs1 (stereo not shown) [‘51486]"
  reported: "modest agonism"

---

- measurement_target: CB1 (rCB1) (Rattus norvegicus, UniProt P20272)
- Sequence (P20272 whole entry): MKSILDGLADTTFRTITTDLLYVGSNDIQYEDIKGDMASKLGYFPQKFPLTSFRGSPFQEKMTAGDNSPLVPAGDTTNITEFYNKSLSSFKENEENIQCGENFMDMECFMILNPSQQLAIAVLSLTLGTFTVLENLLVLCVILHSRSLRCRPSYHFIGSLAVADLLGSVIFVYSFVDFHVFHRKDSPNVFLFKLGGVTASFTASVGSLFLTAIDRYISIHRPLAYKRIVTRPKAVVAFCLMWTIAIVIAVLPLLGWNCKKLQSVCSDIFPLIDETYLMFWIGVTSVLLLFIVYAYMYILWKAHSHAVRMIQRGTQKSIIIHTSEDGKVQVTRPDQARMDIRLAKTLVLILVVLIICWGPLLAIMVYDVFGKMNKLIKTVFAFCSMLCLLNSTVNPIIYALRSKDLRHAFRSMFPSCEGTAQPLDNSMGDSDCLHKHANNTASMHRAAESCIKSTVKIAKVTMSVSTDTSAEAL
- run_description: Single-point radioligand displacement screen
- Assay type: binding
- experimental_setup: 10 µM, 1 µM or 300 nM by cell colour (not visible)
measurement_kind: % 1H-CP-55,940 displacement (mean) from single point screen (%)

- molecule: "COc1ccc(OC(C)(C)c2nnc(-c3nn(C)c(=O)c4ccccc34)o2)cc1 [compound 9753]"
  reported: 51.55
- molecule: "Cn1nc(-c2nnc(C(C)(C)Oc3ccc(C#N)cc3)o2)c2ccccc2c1=O [0450_23]"
  reported: -19.18
- molecule: "Cn1nc(-c2nnc(C(C)(C)Oc3cccc(Cl)c3)o2)c2ccccc2c1=O [0450_22]"
  reported: 43.54
- molecule: "c1ccc(-c2nc(C3CC3)sc2-c2nnc(-c3ccc4c(c3)OCO4)o2)cc1 [7019_32]"
  reported: 39.89
- molecule: "COC(=O)C(OC(=O)c1cc(C)n(-c2cccc(Cl)c2)n1)c1ccsc1 (centres unmarked) [compound 75729]"
  reported: 29.65
- molecule: "Cn1cc2c(n1)CCCC2c1nc(C2(c3cccc(C(F)(F)F)c3)CC2)no1 (centres unmarked) [compound 18525]"
  reported: 41.38
- molecule: "Fc1ccc(-n2ncc3c(SCc4cc(-c5ccco5)on4)ncnc32)cc1 [compound 23397]"
  reported: 17.08
- molecule: "CC1OCCC12CN(C(=O)c1oc3ccccc3c1COc1ccccc1)CCO2 (centres unmarked) [compound 70889]"
  reported: 46.62
- molecule: "COCCOc1cc(C(=O)N2CCCC(CC3CCOC3)C2)nc2ccccc12 (centres unmarked) [compound 49667]"
  reported: 4.27
- molecule: "Cn1nc(-c2nnc(C(C)(C)Oc3ccc(F)cc3)o2)c2ccccc2c1=O [compound 31486]"
  reported: 32.26
- molecule: "O=c1c2cnn(-c3ccccc3)c2nnn1Cc1cc(Cl)ccc1Cl [compound 59552]"
  reported: 38.03
- molecule: "Cc1nc(CC2CC2)oc1-c1nc(Cn2c(C(C)C)nc3ccccc32)no1 [7019_26]"
  reported: 42.67
- molecule: "Cc1onc(-c2ccccc2)c1C(=O)OCc1cn2cc(Cl)ccc2n1 [compound 74872]"
  reported: 49.60
- molecule: "Cc1ccn2cc(C(=O)N3CCc4c(F)cc(Br)cc4C3)nc2c1 [compound 35971]"
  reported: 13.78
- molecule: "Cc1c(C(=O)OCc2nc3ccccc3o2)cnn1Cc1ccccc1 [compound 8354]"
  reported: 59.03
- molecule: "COC(=O)C(NC(=O)c1cc(C)n(-c2cccc(F)c2)n1)c1cccs1 (centres unmarked) [‘51486]"
  reported: 90.60
- molecule: "Cc1cc(C(=O)NC(c2ccccc2)c2ccco2)nn1-c1cccc(C#N)c1 (centres unmarked) [‘12565]"
  reported: 61.12
- molecule: "Cc1cc(C(=O)NC(c2ccc(Cl)cc2)c2ccn(C)n2)nn1-c1cccc(F)c1 (centres unmarked) [compound 17429]"
  reported: 23.12
- molecule: "Cc1cc(C(=O)NC(c2cccs2)C(C)(C)CO)nn1-c1cccc(Cl)c1 (centres unmarked) [compound 78220]"
  reported: 5.56
- molecule: "CC(C)(C)c1c(C(=O)OCC2CSc3ccccc3O2)cnn1Cc1ccccc1 (centres unmarked) [7800_22]"
  reported: 73.02
- molecule: "COC(=O)C(NC(=O)c1cc(C)n(-c2cccc(F)c2)n1)c1ccc2c(c1)CCO2 (centres unmarked) [compound 12208]"
  reported: -5.83
- molecule: "COC(=O)[C@@H](NC(=O)c1cc(C)n(-c2cccc(F)c2)n1)c1ccc(OC)cc1 [compound 59513]"
  reported: 10.54
- molecule: "Cc1nc(C2CC2)oc1-c1nc(Cc2ccc3c(c2)OCO3)no1 [compound 0682]"
  reported: -7.41
- molecule: "COCc1nc(-c2nc(Cc3ccc4c(c3)OCO4)no2)c(-c2ccccc2)s1 [7019_29]"
  reported: 24.10
- molecule: "O=C(Nc1cccc2ccsc12)c1ccn(-c2cccc(F)c2)n1 [1486_22]"
  reported: -3.59
- molecule: "Cc1nn(Cc2ccc(Cl)cc2)c(C)c1C(=O)OCC1CSc2ccccc2O1 (centres unmarked) [‘5463]"
  reported: 81.83
- molecule: "O=C(OCc1ccc(Cl)cc1-n1cncn1)c1ccnc(OC2CCC2)c1 [compound 91451]"
  reported: 17.98
- molecule: "COc1cccc(C2(C)CCN(C(=O)CC34CCCCC3C4(F)F)C2)c1 (centres unmarked) [‘7218]"
  reported: 52.18
- molecule: "Cc1nc(CC2CC2)oc1-c1nc(Cc2cc3c(cc2Br)OCO3)no1 [‘7019]"
  reported: 69.08
- molecule: "Cn1nc(-c2nnc(CCOc3ccc(Cl)cc3)o2)c2ccccc2c1=O [0450_24]"
  reported: 12.07
- molecule: "O=C(OCc1nc2ccccc2s1)c1c2c(nc3ccccc13)CCC2 [compound 47700]"
  reported: 27.24
- molecule: "Cc1c(C(=O)OCC2CSc3ccccc3O2)cnn1-c1ccccc1 (centres unmarked) [compound 3189]"
  reported: 46.85
